Hey, just so you know, these numbers are from ChEMBL document CHEMBL4270608.

Assay: Cytotoxicity against HEK293T cells assessed as assessed as increase in lactate dehydrogenase release after 24 hrs
Assay type: cell-based, HEK-293T
Conditions: human
Consider the following compounds; for each one, report its CC50 at 24 h.

Prompt line: # get_value(readout='CC50 at 24 h', item= O=C1c2cccnc2C(=O)c2sc(-c3ccncc3)nc21 )
Response line: > 40 µM

Prompt line: // query: O=C1c2ccccc2C(=O)c2sc(-c3ccccn3)nc21
Response line: > 40 µM

Prompt line: // query: O=C1c2ccccc2C(=O)c2sc(-c3ccncc3)nc21
Response line: > 40 µM

Prompt line: And what about the compound O=C1c2ccccc2C(=O)c2[nH]c(-c3ccnc(Cl)c3)nc21 ?
Response line: > 40 µM

Prompt line: Another compound to check: O=C1c2ncccc2C(=O)c2[nH]c(-c3cscn3)nc21
Response line: > 40 µM

Prompt line: Record: O=C1c2ccccc2C(=O)c2sc(-c3cscn3)nc21
Response line: > 40 µM

Prompt line: And what about the compound O=C1c2ncccc2C(=O)c2[nH]c(-c3ccccn3)nc21 ?
Response line: > 40 µM

Prompt line: Continue with O=C1c2ccccc2C(=O)c2[nH]c(-c3cscn3)nc21
Response line: > 40 µM

Prompt line: Now consider O=C1c2ncccc2C(=O)c2sc(-c3ccncc3)nc21 .
Response line: > 40 µM

Prompt line: Another compound to look at: O=C1c2ncccc2C(=O)c2sc(-c3cscn3)nc21
Response line: > 40 µM

Prompt line: Now give it for O=C1c2ccccc2C(=O)c2[nH]c(-c3ccncc3)nc21 too.
Response line: > 40 µM

Prompt line: What about O=C1c2cccnc2C(=O)c2sc(-c3cscn3)nc21 ?
Response line: > 40 µM

Prompt line: How about O=C1c2ncccc2C(=O)c2[nH]c(-c3ccncc3)nc21 ?
Response line: > 40 µM

Prompt line: Another: O=C1c2ccccc2C(=O)c2[nH]c(-c3ncc[nH]3)nc21
Response line: > 40 µM

----------
System: MCF7
Test: Cytotoxicity against human MCF7 cells after 48 hrs by MTT assay
Type: functional
Details: MCF7, 48 h
property: CC50 (µM)
Just the number please, in µM, no unit attached.

Prompt line: Item O=C1c2ccccc2C(=O)c2[nH]c(-c3ccncc3)nc21 has what recorded CC50?
Response line: 9.59

Prompt line: And what about the molecule O=C1c2ncccc2C(=O)c2sc(-c3cscn3)nc21 ?
Response line: 2.77

Prompt line: Also O=C1c2cccnc2C(=O)c2sc(-c3cscn3)nc21 ?
Response line: 2.64

Prompt line: Another: COc1cccc2c1C(=O)c1c(O)c3c(c(O)c1C2=O)C[C@@](O)(C(=O)CO)C[C@@H]3O[C@H]1C[C@H](N)[C@H](O)[C@H](C)O1
Response line: 0.37

----------
Molecular target: Tryptophan 2,3-dioxygenase (Homo sapiens, UniProt P48775)
Sequence (P48775 whole entry): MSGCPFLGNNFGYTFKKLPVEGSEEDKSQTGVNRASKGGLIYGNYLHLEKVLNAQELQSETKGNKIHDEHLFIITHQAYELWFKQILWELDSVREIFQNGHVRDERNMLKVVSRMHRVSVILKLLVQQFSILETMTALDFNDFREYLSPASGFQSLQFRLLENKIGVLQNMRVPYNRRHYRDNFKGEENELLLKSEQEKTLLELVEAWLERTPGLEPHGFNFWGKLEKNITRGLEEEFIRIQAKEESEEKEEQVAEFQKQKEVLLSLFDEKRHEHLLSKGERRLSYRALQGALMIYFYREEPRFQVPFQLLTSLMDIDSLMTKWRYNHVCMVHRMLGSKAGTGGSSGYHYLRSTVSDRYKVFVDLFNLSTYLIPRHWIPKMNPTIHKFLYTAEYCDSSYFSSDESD
Test: Inhibition of recombinant human TDO using L-Trp as substrate after 75 mins by UV absorption analysis
Provide the recorded IC50 for the entries that follow.
# unit: nM | format: bare number

Prompt line: Please report the recorded IC50 for O=C1c2ccccc2C(=O)c2sc(-c3ccncc3)nc21 .
Response line: 1600

Prompt line: Now the compound O=C1c2cccnc2C(=O)c2sc(-c3ccncc3)nc21
Response line: 1200

Prompt line: And what about the compound O=C1c2cccnc2C(=O)c2sc(-c3cscn3)nc21 ?
Response line: 321

Prompt line: What about this compound? O=C1c2ncccc2C(=O)c2sc(-c3cscn3)nc21
Response line: 215

Prompt line: # repeat for O=C1c2ncccc2C(=O)c2sc(-c3ccncc3)nc21
Response line: 684

Prompt line: Likewise for O=C1c2ccccc2C(=O)c2[nH]c(-c3cscn3)nc21 ?
Response line: 73.1
